- study_target: FtCCAP (Francisella tularensis class C acid phosphatase) (Francisella tularensis)
- Sequence (Q5NH51 22-247 limits assumed): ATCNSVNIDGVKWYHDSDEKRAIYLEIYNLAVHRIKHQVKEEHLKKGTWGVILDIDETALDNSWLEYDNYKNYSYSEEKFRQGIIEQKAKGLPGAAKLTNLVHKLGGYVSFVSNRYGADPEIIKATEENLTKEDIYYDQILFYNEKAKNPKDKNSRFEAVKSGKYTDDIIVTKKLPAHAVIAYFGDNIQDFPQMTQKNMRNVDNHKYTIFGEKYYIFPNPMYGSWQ
metric_name: Ki (nM)
Report only the number, with the unit nM understood.

## Input # lookup: Ki of Nc1ncnc2c1ncn2[C@@H]1O[C@H](COP(O)(O)=S)[C@@H](O)[C@H]1O
## Output 300
